Reported values of CHEAL herbicidal rating for individual entries
- System: CHEAL Lambsquarters, Common
- assayRemarks: Preemergence herbicidal evaluation, CHEAL
- Format: in vivo, Chenopodium album, L.
- Design: scale not given here
- experimentalSetup: preemergence, rate 0.016 kg/ha
Form: value (number only, do not type unit).

Recorded results for 3 compounds are shown here.
input: State its CHEAL herbicidal rating on CHEAL Lambsquarters, Common: "CCc1cccc(-n2nnc3cc(F)c(-n4c(=O)cc(C(F)(F)F)n(C)c4=O)cc32)c1"
output: 9.0

input: State its CHEAL herbicidal rating on CHEAL Lambsquarters, Common: "COc1ccc(C)c(-n2nnc3cc(F)c(-n4c(=O)cc(C(F)(F)F)n(C)c4=O)cc32)c1"
output: 9.0

input: State its CHEAL herbicidal rating on CHEAL Lambsquarters, Common: "Cc1cc(O)ccc1-n1nnc2cc(F)c(-n3c(=O)cc(C(F)(F)F)n(C)c3=O)cc21"
output: 9.0

Further cases:
input: State its CHEAL herbicidal rating on CHEAL Lambsquarters, Common: "COc1ccc(C)cc1-n1nnc2cc(F)c(-n3c(=O)cc(C(F)(F)F)n(C)c3=O)cc21"
output: 9.0

input: State its CHEAL herbicidal rating on CHEAL Lambsquarters, Common: "CCc1ccc(-n2nnc3cc(F)c(-n4c(=O)cc(C(F)(F)F)n(C)c4=O)cc32)cc1"
output: 9.0

input: State its CHEAL herbicidal rating on CHEAL Lambsquarters, Common: "COC(=O)COc1ccccc1-n1nnc2cc(F)c(-n3c(=O)cc(C(F)(F)F)n(C)c3=O)cc21"
output: 0.0

input: State its CHEAL herbicidal rating on CHEAL Lambsquarters, Common: "COc1ccc(Cl)cc1-n1nnc2cc(F)c(-n3c(=O)cc(C(F)(F)F)n(C)c3=O)cc21"
output: 9.0

---

- System: GALAP Galium
- assayRemarks: Postemergence herbicidal evaluation, GALAP
- Assay type: in vivo, Galium aparine
- Design: scale not given here
- experimentalSetup: 0.008 kg/ha, postemergence spray, rated about two-three weeks after treatment
Reported values of Postemergence herbicidal rating GALAP for individual entries
Form: value (number only, do not type unit).

Recorded results for 6 compounds are shown here.
input: Quick check: Postemergence herbicidal rating GALAP of "C=CCOc1ccc(C)cc1-n1nnc2cc(F)c(-n3c(=O)cc(C(F)(F)F)n(C)c3=O)cc21" ?
output: 1.0

input: Quick check: Postemergence herbicidal rating GALAP of COC(=O)C(C)Oc1ccc(C)cc1-n1nnc2cc(F)c(-n3c(=O)cc(C(F)(F)F)n(C)c3=O)cc21 (stereo not shown) ?
output: 0.0

input: Quick check: Postemergence herbicidal rating GALAP of "COC(=O)COc1ccc(C)cc1-n1nnc2cc(F)c(-n3c(=O)cc(C(F)(F)F)n(C)c3=O)cc21" ?
output: 0.0

input: Quick check: Postemergence herbicidal rating GALAP of "Cc1ccccc1-n1nnc2cc(F)c(-n3c(=O)cc(C(F)(F)F)n(C)c3=O)cc21" ?
output: 0.0

input: Quick check: Postemergence herbicidal rating GALAP of "C=CCOc1ccc(-n2nnc3cc(F)c(-n4c(=O)cc(C(F)(F)F)n(C)c4=O)cc32)c(C)c1" ?
output: 0.0

input: Quick check: Postemergence herbicidal rating GALAP of "COCc1ccccc1-n1nnc2cc(F)c(-n3c(=O)cc(C(F)(F)F)n(C)c3=O)cc21" ?
output: 1.0

# context switch: different compound, same Postemergence herbicidal rating GALAP
input: Quick check: Postemergence herbicidal rating GALAP of "Cc1ccc(OCC(=O)O)cc1-n1nnc2cc(F)c(-n3c(=O)cc(C(F)(F)F)n(C)c3=O)cc21" ?
output: 0.0

---

Reported values of Postemergence herbicidal rating IPOHE for individual entries
- System: IPOHE Morningglory, Ivyleaf
- assayRemarks: Postemergence herbicidal evaluation, IPOHE
- Format: in vivo, Ipomoea hederacea, (L.) Jacq.
- Parameters: scale not given here
- experimentalSetup: 0.032 kg/ha, postemergence spray, rated about two-three weeks after treatment
Form: value (number only, do not type unit).

Recorded results for 5 molecules are shown here.
input: Quick check: Postemergence herbicidal rating IPOHE of "COc1ccc(C)c(-n2nnc3cc(F)c(-n4c(=O)cc(C(F)(F)F)n(C)c4=O)cc32)c1" ?
output: 9.0

input: Quick check: Postemergence herbicidal rating IPOHE of "Cc1ccc(OCC(=O)O)cc1-n1nnc2cc(F)c(-n3c(=O)cc(C(F)(F)F)n(C)c3=O)cc21" ?
output: 9.0

input: Quick check: Postemergence herbicidal rating IPOHE of "Cc1ccc(-n2nnc3cc(F)c(-n4c(=O)cc(C(F)(F)F)n(C)c4=O)cc32)cc1" ?
output: 9.0

input: Quick check: Postemergence herbicidal rating IPOHE of "COCc1ccccc1-n1nnc2cc(F)c(-n3c(=O)cc(C(F)(F)F)n(C)c3=O)cc21" ?
output: 9.0

input: Quick check: Postemergence herbicidal rating IPOHE of "COc1ccccc1-n1nnc2cc(F)c(-n3c(=O)cc(C(F)(F)F)n(C)c3=O)cc21" ?
output: 9.0

Further cases:
input: Quick check: Postemergence herbicidal rating IPOHE of "Cc1ccccc1-n1nnc2cc(F)c(-n3c(=O)cc(C(F)(F)F)n(C)c3=O)cc21" ?
output: 4.0

input: Quick check: Postemergence herbicidal rating IPOHE of "COc1ccc(-n2nnc3cc(F)c(-n4c(=O)cc(C(F)(F)F)n(C)c4=O)cc32)cc1" ?
output: 9.0

input: Quick check: Postemergence herbicidal rating IPOHE of "Cc1cc(O)ccc1-n1nnc2cc(F)c(-n3c(=O)cc(C(F)(F)F)n(C)c3=O)cc21" ?
output: 3.0

---

- Test system: IPOHE Morningglory, Ivyleaf
- assayRemarks: Postemergence herbicidal evaluation, IPOHE
- Type: in vivo, Ipomoea hederacea, (L.) Jacq.
- Set-up: scale not given here
- experimentalSetup: 0.032 kg/ha, postemergence spray, rated about two-three weeks after treatment
property: Postemergence herbicidal rating IPOHE
Form: value (number only, do not type unit).

Recorded results for 6 compounds are shown here.
input: Quick check: Postemergence herbicidal rating IPOHE of CC(C)c1ccc(-n2nnc3cc(F)c(-n4c(=O)cc(C(F)(F)F)n(C)c4=O)cc32)cc1 [Example 21] ?
output: 6.0

input: Quick check: Postemergence herbicidal rating IPOHE of COC(=O)COc1ccc(C)cc1-n1nnc2cc(F)c(-n3c(=O)cc(C(F)(F)F)n(C)c3=O)cc21 [Example 34] ?
output: 9.0

input: Quick check: Postemergence herbicidal rating IPOHE of CCc1ccc(-n2nnc3cc(F)c(-n4c(=O)cc(C(F)(F)F)n(C)c4=O)cc32)cc1 [Example 17] ?
output: 9.0

input: Quick check: Postemergence herbicidal rating IPOHE of Cn1c(C(F)(F)F)cc(=O)n(-c2cc3c(cc2F)nnn3-c2ccc(OCC(=O)O)cc2)c1=O [Example 44] ?
output: 9.0

input: Quick check: Postemergence herbicidal rating IPOHE of C#CCOC(=O)COc1ccc(C)cc1-n1nnc2cc(F)c(-n3c(=O)cc(C(F)(F)F)n(C)c3=O)cc21 [Example 40] ?
output: 9.0

input: Quick check: Postemergence herbicidal rating IPOHE of C=CCOc1ccc(C)cc1-n1nnc2cc(F)c(-n3c(=O)cc(C(F)(F)F)n(C)c3=O)cc21 [Example 42] ?
output: 9.0

# context switch: different compound, same Postemergence herbicidal rating IPOHE
input: Quick check: Postemergence herbicidal rating IPOHE of CCc1cccc(-n2nnc3cc(F)c(-n4c(=O)cc(C(F)(F)F)n(C)c4=O)cc32)c1 [Example 29] ?
output: 9.0

---

- System: ORYSAT Rice, Tebonnet
- assayRemarks: Preemergence herbicidal evaluation, ORYSAT
- Format: in vivo, Oryza sativa, (L.)
- Parameters: scale not given here
- experimentalSetup: preemergence, rate 0.032 kg/ha
Reported values of ORYSAT herbicidal rating for individual entries

input: Quick check: ORYSAT herbicidal rating of "Cc1cc(O)ccc1-n1nnc2cc(F)c(-n3c(=O)cc(C(F)(F)F)n(C)c3=O)cc21" ?
output: 0.0

input: Quick check: ORYSAT herbicidal rating of "COC(=O)COc1ccccc1-n1nnc2cc(F)c(-n3c(=O)cc(C(F)(F)F)n(C)c3=O)cc21" ?
output: 0.0

input: Quick check: ORYSAT herbicidal rating of "COc1ccc(-n2nnc3cc(F)c(-n4c(=O)cc(C(F)(F)F)n(C)c4=O)cc32)cc1" ?
output: 2.0

input: Quick check: ORYSAT herbicidal rating of "Cc1ccc(-n2nnc3cc(F)c(-n4c(=O)cc(C(F)(F)F)n(C)c4=O)cc32)cc1" ?
output: 0.5

---

- System: ORYSAT Rice, Tebonnet
- assayRemarks: Postemergence herbicidal evaluation, ORYSAT
- Assay type: in vivo, Oryza sativa, (L.)
- Parameters: scale not given here
- experimentalSetup: 0.062 kg/ha, postemergence spray, rated about two-three weeks after treatment
- Description: In this evaluation, seedling plants are grown in jiffy flats for about two weeks. The test compounds are dispersed in 80/20 acetone/water mixtures containing 1.0% SUN-IT® II, a methylated seed oil, in sufficient quantities to provide the equivalent of about 0.006 kg to 0.400 kg per hectare of active compound when applied to the plants through a spray nozzle operating at 40 psi for a predetermined time. […]
property: Postemergence herbicidal rating ORYSAT

input: State its Postemergence herbicidal rating ORYSAT on ORYSAT Rice, Tebonnet: "COc1ccc(Cl)cc1-n1nnc2cc(F)c(-n3c(=O)cc(C(F)(F)F)n(C)c3=O)cc21"
output: 4.5

input: State its Postemergence herbicidal rating ORYSAT on ORYSAT Rice, Tebonnet: "Cc1ccc(O)c(-n2nnc3cc(F)c(-n4c(=O)cc(C(F)(F)F)n(C)c4=O)cc32)c1"
output: 1.5

input: State its Postemergence herbicidal rating ORYSAT on ORYSAT Rice, Tebonnet: "CCc1ccccc1-n1nnc2cc(F)c(-n3c(=O)cc(C(F)(F)F)n(C)c3=O)cc21"
output: 2.0

input: State its Postemergence herbicidal rating ORYSAT on ORYSAT Rice, Tebonnet: "Cc1ccc(O)cc1-n1nnc2cc(F)c(-n3c(=O)cc(C(F)(F)F)n(C)c3=O)cc21"
output: 2.0

input: State its Postemergence herbicidal rating ORYSAT on ORYSAT Rice, Tebonnet: "COc1ccc(C)c(-n2nnc3cc(F)c(-n4c(=O)cc(C(F)(F)F)n(C)c4=O)cc32)c1"
output: 3.0

input: State its Postemergence herbicidal rating ORYSAT on ORYSAT Rice, Tebonnet: "COC(=O)COc1ccc(C)c(-n2nnc3cc(F)c(-n4c(=O)cc(C(F)(F)F)n(C)c4=O)cc32)c1"
output: 6.0

input: State its Postemergence herbicidal rating ORYSAT on ORYSAT Rice, Tebonnet: "COc1ccc(-n2nnc3cc(F)c(-n4c(=O)cc(C(F)(F)F)n(C)c4=O)cc32)c(C)c1"
output: 2.5

input: State its Postemergence herbicidal rating ORYSAT on ORYSAT Rice, Tebonnet: "C=CCOc1ccc(C)cc1-n1nnc2cc(F)c(-n3c(=O)cc(C(F)(F)F)n(C)c3=O)cc21"
output: 2.5

input: State its Postemergence herbicidal rating ORYSAT on ORYSAT Rice, Tebonnet: "Cc1cc(O)ccc1-n1nnc2cc(F)c(-n3c(=O)cc(C(F)(F)F)n(C)c3=O)cc21"
output: 2.0
